molecular target: CK1d (Homo sapiens); construct: purchased ReactionBiology; assay: Kinase activity test (ReactionBiology), % enzyme activity relative to DMSO; type: biochemical; conditions: CK1d; 1 uM; replicate Data 2
In this section, each of the compounds is paired with its reported % Enzyme Activity (relative to DMSO controls), Data 2.
property: % Enzyme Activity (relative to DMSO controls), Data 2 (%)

compound	study.target	recorded.value
CCC1=C(C)CN(C(=O)NCCc2ccc(S(=O)(=O)NC(=O)N[C@H]3CC[C@H](C)CC3)cc2)C1=O [Glimepiride]	CK1d (Homo sapiens)	104.59
CC1=Nc2ccc(Cl)cc2S(=O)(=O)N1 [Diazoxide]	CK1d (Homo sapiens)	90.62
C[C@H]1O[C@@H](O[C@H]2[C@@H](O)C[C@H](O[C@H]3[C@@H](O)C[C@H](O[C@H]4CC[C@@]5(C)[C@H](CC[C@@H]6[C@@H]5C[C@@H](O)[C@]5(C)[C@@H](C7=CC(=O)OC7)CC[C@]65O)C4)O[C@@H]3C)O[C@@H]2C)C[C@H](O)[C@@H]1O [Digoxin]	CK1d (Homo sapiens)	101.39

###

In this section, each of the compounds is paired with its reported % Enzyme Activity (relative to DMSO controls), Data 2.
Target: NEK2 (Homo sapiens, UniProt P51955)
Construct: purchased ReactionBiology
Sequence (P51955 1-445): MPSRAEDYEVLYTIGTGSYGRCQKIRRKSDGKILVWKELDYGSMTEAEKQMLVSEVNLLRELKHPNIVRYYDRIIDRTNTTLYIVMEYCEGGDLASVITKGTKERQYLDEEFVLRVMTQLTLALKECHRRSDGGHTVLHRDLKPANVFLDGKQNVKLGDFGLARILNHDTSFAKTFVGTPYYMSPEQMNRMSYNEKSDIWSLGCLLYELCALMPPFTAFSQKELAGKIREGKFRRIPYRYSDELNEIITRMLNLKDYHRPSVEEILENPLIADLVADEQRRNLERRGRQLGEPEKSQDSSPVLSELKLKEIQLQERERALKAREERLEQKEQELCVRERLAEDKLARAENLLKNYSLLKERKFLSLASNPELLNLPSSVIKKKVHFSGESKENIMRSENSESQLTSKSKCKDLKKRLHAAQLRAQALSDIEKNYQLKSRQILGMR
Assay: Kinase activity test (ReactionBiology), % enzyme activity relative to DMSO
Type: biochemical
Conditions: NEK2; 1 uM; replicate Data 2
property: % Enzyme Activity (relative to DMSO controls), Data 2 (%)

In [3]: df
Out[3]:
                           molecular_string  recorded_value
0       CC(=O)CCCCn1c(=O)c2c(ncn2C)n(C)c1=O           90.35
1  Cc1nc(=O)c2cc(CN(C)c3ccc(C(=O)N[C@@H](CCC(=O)O)C(=O)O)s3)ccc2[nH]1           97.89
2              Nc1nc2c(ncn2COCCO)c(=O)[nH]1          103.33
3            O=C(O)c1cc(-c2ccc(F)cc2F)ccc1O           97.20
4                  Nc1nc2[nH]cnc2c(=S)[nH]1           93.38

###

target: NEK2 (Homo sapiens); construct: purchased ReactionBiology; assay: Kinase activity test (ReactionBiology), % enzyme activity relative to DMSO; type: biochemical; details: NEK2; compound at 10 uM; average of Data 1 and Data 2
property: % Enzyme Activity (relative to DMSO controls), Average (%)

                         molecular_string  recorded_value
0  OC[C@@H](O)[C@@H](O)[C@H](O)[C@H](O)CO          102.41
1             c1coc(CNc2ncnc3[nH]cnc23)c1           94.02
2        Nc1nc2c(ncn2COC(CO)CO)c(=O)[nH]1           89.44

###

target: CK1d (Homo sapiens, UniProt P48730); construct: purchased ReactionBiology; assay: Kinase activity test (ReactionBiology), % enzyme activity relative to DMSO; format: biochemical; settings: CK1d; 1 uM; replicate Data 1; read-out: % Enzyme Activity (relative to DMSO controls), Data 1
Sequence (P48730 whole entry): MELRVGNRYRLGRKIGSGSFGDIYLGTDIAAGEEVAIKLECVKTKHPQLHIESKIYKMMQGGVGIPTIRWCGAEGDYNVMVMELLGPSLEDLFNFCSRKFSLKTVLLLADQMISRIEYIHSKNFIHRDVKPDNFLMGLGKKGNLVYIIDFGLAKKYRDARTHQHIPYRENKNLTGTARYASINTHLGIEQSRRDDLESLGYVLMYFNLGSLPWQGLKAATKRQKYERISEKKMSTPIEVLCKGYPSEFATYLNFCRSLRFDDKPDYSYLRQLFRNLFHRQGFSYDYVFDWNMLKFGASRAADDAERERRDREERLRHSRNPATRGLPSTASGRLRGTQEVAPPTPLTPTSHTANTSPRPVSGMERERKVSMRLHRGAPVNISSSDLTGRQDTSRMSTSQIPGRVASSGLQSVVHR
In this section, each of the compounds is paired with its reported remaining activity at 1 µM.

compound	study.target	remaining activity at 1 µM [%]
Cc1ccc(C(=O)c2cc(O)c(O)c([N+](=O)[O-])c2)cc1 [Tolcapone, reference compound]	CK1d (Homo sapiens, UniProt P48730)	91.5
NCCCCCC(=O)O	CK1d (Homo sapiens, UniProt P48730)	116
Cc1cccc(C)c1OCC(=O)N[C@@H](Cc1ccccc1)[C@@H](O)C[C@H](Cc1ccccc1)NC(=O)[C@H](C(C)C)N1CCCNC1=O [Lopinavir, reference compound]	CK1d (Homo sapiens, UniProt P48730)	111
CCN(CC)Cc1cc(Nc2ccnc3cc(Cl)ccc23)ccc1O [Amodiaquine, reference compound]	CK1d (Homo sapiens, UniProt P48730)	106
N[C@@H](Cc1cc(I)c(Oc2cc(I)c(O)c(I)c2)c(I)c1)C(=O)O [Thyroxine, reference compound]	CK1d (Homo sapiens, UniProt P48730)	106

###

target: VEGFR2 (Homo sapiens, UniProt P35968); assay: Kinase activity test (ReactionBiology), % enzyme activity relative to DMSO; format: biochemical; parameters: purchased ReactionBiology; settings: VEGFR2; 1 uM; Average; read-out: % Enzyme Activity (relative to DMSO controls), Average;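 as to remaining activity: VEGFR2 was one member of a ten-kinase screening panel testing marketed FDA-approved drugs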
Sequence (P35968 20-1356): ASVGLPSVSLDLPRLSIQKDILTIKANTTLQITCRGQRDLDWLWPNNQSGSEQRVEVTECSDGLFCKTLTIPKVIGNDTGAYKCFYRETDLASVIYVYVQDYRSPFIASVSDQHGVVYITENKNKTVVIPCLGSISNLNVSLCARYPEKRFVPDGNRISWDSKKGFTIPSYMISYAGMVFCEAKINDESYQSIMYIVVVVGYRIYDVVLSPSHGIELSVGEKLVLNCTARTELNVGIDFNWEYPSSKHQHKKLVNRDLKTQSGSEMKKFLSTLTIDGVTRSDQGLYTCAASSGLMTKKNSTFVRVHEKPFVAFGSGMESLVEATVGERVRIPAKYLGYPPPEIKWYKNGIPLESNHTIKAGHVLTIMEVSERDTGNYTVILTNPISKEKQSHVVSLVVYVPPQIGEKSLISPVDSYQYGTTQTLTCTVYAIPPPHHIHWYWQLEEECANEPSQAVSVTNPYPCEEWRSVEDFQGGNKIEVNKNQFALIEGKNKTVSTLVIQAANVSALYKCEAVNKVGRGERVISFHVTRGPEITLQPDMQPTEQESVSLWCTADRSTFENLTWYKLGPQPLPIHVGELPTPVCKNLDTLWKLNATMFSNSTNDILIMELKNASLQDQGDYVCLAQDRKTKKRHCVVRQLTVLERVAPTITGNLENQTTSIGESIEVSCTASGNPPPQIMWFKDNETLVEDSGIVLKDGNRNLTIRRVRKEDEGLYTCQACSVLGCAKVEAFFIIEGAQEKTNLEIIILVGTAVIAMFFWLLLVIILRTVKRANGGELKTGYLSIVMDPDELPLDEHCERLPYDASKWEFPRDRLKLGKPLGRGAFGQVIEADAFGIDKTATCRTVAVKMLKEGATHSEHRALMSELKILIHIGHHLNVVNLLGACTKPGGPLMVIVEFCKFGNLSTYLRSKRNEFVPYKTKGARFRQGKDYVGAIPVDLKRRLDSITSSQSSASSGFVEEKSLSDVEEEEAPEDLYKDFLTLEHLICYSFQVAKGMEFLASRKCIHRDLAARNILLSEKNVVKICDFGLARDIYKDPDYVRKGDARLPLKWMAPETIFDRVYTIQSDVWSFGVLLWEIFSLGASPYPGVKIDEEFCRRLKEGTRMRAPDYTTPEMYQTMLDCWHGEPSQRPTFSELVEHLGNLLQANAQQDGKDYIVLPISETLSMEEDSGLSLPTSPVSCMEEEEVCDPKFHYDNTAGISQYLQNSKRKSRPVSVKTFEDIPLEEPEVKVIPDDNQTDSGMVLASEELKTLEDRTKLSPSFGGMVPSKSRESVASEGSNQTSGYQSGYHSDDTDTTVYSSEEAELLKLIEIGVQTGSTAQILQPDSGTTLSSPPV

compound	remaining activity at 1 µM
O=C(O)c1ccccc1O [Salicylic acid]	96.6%
NC(=O)c1cccnc1 [Niacinamide, reference compound]	96.4%
Cc1cc(C#N)cc(C)c1Oc1nc(Nc2ccc(C#N)cc2)nc(N)c1Br [Etravirine, reference compound]	108%
N[C@@H](CC(=O)N1CCn2c(nnc2C(F)(F)F)C1)Cc1cc(F)c(F)cc1F [Sitagliptin]	97.9%
C[C@]12CC[C@@H]3c4ccc(O)cc4CC[C@H]3[C@@H]1CC[C@@H]2O [Estradiol, reference compound]	115%
Oc1cc(Cl)ccc1Oc1ccc(Cl)cc1Cl [Triclosan, reference compound]	111%
Cc1ccc(C(=O)Nc2ccc(S(=O)(=O)O)c3cc(S(=O)(=O)O)cc(S(=O)(=O)O)c23)cc1NC(=O)c1cccc(NC(=O)Nc2cccc(C(=O)Nc3cc(C(=O)Nc4ccc(S(=O)(=O)O)c5cc(S(=O)(=O)O)cc(S(=O)(=O)O)c45)ccc3C)c2)c1 [Suramin, reference compound]	72.7%

###

molecular target: CK1d (Homo sapiens, UniProt P48730); construct: purchased ReactionBiology; test: Kinase activity test (ReactionBiology), % enzyme activity relative to DMSO; assay type: biochemical; conditions: CK1d; 10 uM; replicate Data 2
property: % Enzyme Activity (relative to DMSO controls), Data 2 (%)

>>> df
                                   compound  recorded_value
0  CCC1=C(C)CN(C(=O)NCCc2ccc(S(=O)(=O)NC(=O)N[C@H]3CC[C@H](C)CC3)cc2)C1=O [Glimepiride]              86
1              CCCCNc1ccc(C(=O)OCCN(C)C)cc1          118.26
2  CN1CC(=O)N2[C@H](c3ccc4c(c3)OCO4)c3[nH]c4ccccc4c3C[C@@H]2C1=O           109.5
3  COc1cc2c(c(OC)c1OC)-c1ccc(OC)c(=O)cc1[C@@H](NC(C)=O)CC2          111.97
4            O=C(O)c1cc(-c2ccc(F)cc2F)ccc1O          106.42
5             CCc1nc(N)nc(N)c1-c1ccc(Cl)cc1           82.82

###

In this section, each of the compounds is paired with its reported % Enzyme Activity (relative to DMSO controls), Data 1.
Target: NEK2 (Homo sapiens, UniProt P51955)
Construct: purchased ReactionBiology
Sequence (P51955 1-445): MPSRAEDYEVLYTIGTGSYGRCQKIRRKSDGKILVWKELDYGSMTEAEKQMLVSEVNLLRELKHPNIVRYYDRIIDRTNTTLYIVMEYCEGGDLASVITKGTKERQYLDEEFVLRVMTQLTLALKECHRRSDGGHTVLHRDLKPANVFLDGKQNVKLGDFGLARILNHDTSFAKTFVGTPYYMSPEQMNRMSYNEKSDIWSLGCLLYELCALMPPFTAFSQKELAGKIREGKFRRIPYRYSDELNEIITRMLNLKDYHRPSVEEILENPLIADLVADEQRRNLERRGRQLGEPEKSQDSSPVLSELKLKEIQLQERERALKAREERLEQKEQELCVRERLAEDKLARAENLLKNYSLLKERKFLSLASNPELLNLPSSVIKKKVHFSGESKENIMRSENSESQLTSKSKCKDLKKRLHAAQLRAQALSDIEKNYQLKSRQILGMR
Test: Kinase activity test (ReactionBiology), % enzyme activity relative to DMSO;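 also: FDA-approved drugs chosen by structure-based repositioning, each screened at 10 or 1 µM for kinase activity, expressed as percent of DMSO controls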
Assay type: biochemical
Conditions: NEK2; 10 uM; replicate Data 1
property: % Enzyme Activity (relative to DMSO controls), Data 1 (%)

>>> df
                                   compound  recorded_value
0  N[C@H]1C(O)O[C@H](CO)[C@@H](O)[C@@H]1O (some centres unmarked) [Glucosamine]           90.86
1  Nc1nc2c(ncn2COCCO)c(=O)[nH]1 [Acyclovir]          101.40
2  CC(=O)CCCCn1c(=O)c2c(ncn2C)n(C)c1=O [Pentoxifylline]           86.43
3  Cc1nnc(C(C)C)n1C1C[C@H]2CC[C@@H](C1)N2CC[C@H](NC(=O)C1CCC(F)(F)CC1)c1ccccc1 (stereo in doubt) [Maraviroc]           99.97
4  O=C(O)c1cc(-c2ccc(F)cc2F)ccc1O [Diflunisal]          100.11
